Kindly supply the reported Activity (activity towards Factor Xa) values for the records listed here.
biological target: Factor Xa (Homo sapiens, UniProt P00742); assay: Activity towards Factor Xa: hydrolysis rate by variation in optical density with time (ΔOD/min); assay type: biochemical; details: hydrolysis rate (ΔOD/min) at equimolar doses; activity of reference product CP 1 specified as 100%
Sequence (P00742 235-488 limits assumed): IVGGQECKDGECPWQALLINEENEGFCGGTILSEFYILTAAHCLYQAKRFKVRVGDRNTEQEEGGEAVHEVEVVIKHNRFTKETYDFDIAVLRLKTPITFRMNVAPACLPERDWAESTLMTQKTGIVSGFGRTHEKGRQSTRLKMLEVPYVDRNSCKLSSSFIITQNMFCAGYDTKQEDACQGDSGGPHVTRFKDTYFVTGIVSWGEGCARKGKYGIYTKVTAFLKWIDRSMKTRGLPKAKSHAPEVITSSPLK
Sequence (P00742 41-179 partner limits assumed): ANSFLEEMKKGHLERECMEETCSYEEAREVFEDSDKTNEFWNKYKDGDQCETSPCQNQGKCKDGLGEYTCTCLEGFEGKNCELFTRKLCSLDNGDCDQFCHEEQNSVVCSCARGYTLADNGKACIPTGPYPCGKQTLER
Numbers only, in %.

Example entries and their recorded answers appear below.
>>> reported_value("COC(=O)CC(=O)N[C@H](CC(C)C)C(=O)NCC(=O)N[C@@H](CCCNC(=N)N)C(=O)Nc1ccc([N+](=O)[O-])cc1")
115
>>> reported_value("COCCOCCOCCOC(=O)N[C@H](CC(C)C)C(=O)NCC(=O)N[C@@H](CCCNC(=N)N)C(=O)Nc1ccc([N+](=O)[O-])cc1")
110

# input for lookup
Enquiry: I have this molecule here, `CCOC(=O)CC(=O)N[C@H](CC(C)C)C(=O)NCC(=O)N[C@@H](CCCNC(=N)N)C(=O)Nc1ccc([N+](=O)[O-])cc1` , and I need its recorded Activity (activity towards Factor Xa).
Return: 132

====

target: Factor Xa (Homo sapiens); assay: Activity towards Factor Xa: hydrolysis rate by variation in optical density with time (ΔOD/min); type: biochemical; conditions: hydrolysis rate (ΔOD/min) at equimolar doses; activity of reference product CP 1 specified as 100%
Non-standard residues stand in square brackets, D forms with d. Residues, ends and D or L forms follow the SMILES beside them. *: point of attachment. pNA = O=[N+]([O-])c1ccc(N*)cc1; X1 = COC(=O)CC(=O)*; Ms = CS(=O)(=O)*
Kindly supply the reported Activity (activity towards Factor Xa) values for the records listed here.
Answers are plain numbers, in %.

Example entries and their recorded answers appear below.
>>> reported_value("COCCOCCOCCOCCOCCOCCOCCOC(=O)N[C@H](CC(C)C)C(=O)NCC(=O)N[C@@H](CCCNC(=N)N)C(=O)Nc1ccc([N+](=O)[O-])cc1")
103
>>> reported_value("CC[C@@H](C)[C@@H](NC(=O)CC(=O)OC)C(=O)N[C@@H](CCC(=O)OC)C(=O)NCC(=O)N[C@@H](CCCNC(=N)N)C(=O)Nc1ccc([N+](=O)[O-])cc1 [Ex. 33, MM-D-Ile-L-Glu(OMe)-Gly-L-Arg-pNA] (X1-[dI]E(OMe)GR-pNA)")
105
>>> reported_value("CCCC[C@@H](NC(=O)OCCOCCOCCOC)C(=O)NCC(=O)N[C@@H](CCCNC(=N)N)C(=O)Nc1ccc([N+](=O)[O-])cc1")
121

For every record below, what is its Activity (activity towards Factor Xa)?
1. CC(C)C[C@@H](NS(C)(=O)=O)C(=O)NCC(=O)N[C@@H](CCCNC(=N)N)C(=O)Nc1ccc([N+](=O)[O-])cc1 [CP 1, reference compound] (Ms-[dL]-Gly-Arg-pNA)
2. COCCOC(=O)N[C@H](CC(C)C)C(=O)NCC(=O)N[C@@H](CCCNC(=N)N)C(=O)Nc1ccc([N+](=O)[O-])cc1

Return:
100
145

For every record below, what is its Activity (activity towards Factor Xa)?
1. COCCOCCOC(=O)N[C@H](CC(C)C)C(=O)NCC(=O)N[C@@H](CCCNC(=N)N)C(=O)Nc1ccc([N+](=O)[O-])cc1
2. CCCC[C@@H](NC(=O)CC(=O)OC)C(=O)NCC(=O)N[C@@H](CCCNC(=N)N)C(=O)Nc1ccc([N+](=O)[O-])cc1
3. CCCCOCCOCCOCCOCCOCCOCCOCCOC(=O)N[C@H](CCCC)C(=O)NCC(=O)N[C@@H](CCCNC(=N)N)C(=O)Nc1ccc([N+](=O)[O-])cc1

Return:
1: 105; 2: 140; 3: 124
